tested on: thromboplastin clotting time in human plasma; assay: prothrombin time test (thromboplastin clotting time in human plasma); assay type: biochemical; details: 90 micrograms per milliliter of plasma; 37° C.; human plasma
Counter-ions that a name gives are not always drawn.
Kindly apply the following: criterion met if plasma prothrombin time is less than 50 s, criterion not met in every other case.

COMPOUND	ASSIGNED CLASS
CCCCOc1ccc(CC(CN)c2ccccc2)cc1.Cl (centres unmarked)	criterion met
CCCCOc1ccc(CCC(C)N(C)C)cc1 (centres unmarked) [Example 41, hydrochloride]	criterion met
Cl.NCC(Cc1ccc2c(c1)OCO2)c1ccc(-c2ccccc2)cc1 (centres unmarked)	criterion not met
CCCCOc1ccc(CC(C)CN(C)C)cc1.Cl (centres unmarked)	criterion met

Determine whether this compound shows plasma prothrombin time lower than 50 s (ties excluded): CCCCCOc1ccc(CC(CN)c2ccccc2)cc1.Cl (centres unmarked)
criterion not met

Determine whether this compound shows plasma prothrombin time lower than 50 s (ties excluded): COc1ccc(C(CN)Cc2ccc(-c3ccccc3)cc2)cc1OC (centres unmarked) [Example 8, hydrochloride]
criterion met

Determine whether this compound shows plasma prothrombin time lower than 50 s (ties excluded): CCCCCCCOc1ccc(CC(CN)c2ccccc2)cc1.Cl (centres unmarked)
criterion not met

Determine whether this compound shows plasma prothrombin time lower than 50 s (ties excluded): CCCCCCCOc1ccc(CC(CN)c2ccc(OC)c(OC)c2)cc1 (centres unmarked)
criterion not met

Determine whether this compound shows plasma prothrombin time lower than 50 s (ties excluded): CCCCCCOc1ccc(CC(CN)c2ccc(F)cc2)cc1 (centres unmarked)
criterion not met

Determine whether this compound shows plasma prothrombin time lower than 50 s (ties excluded): CC(CCc1ccc(C(C)(C)C)cc1)N(C)C.Cl (centres unmarked)
criterion met

Determine whether this compound shows plasma prothrombin time lower than 50 s (ties excluded): CCCCCCCOc1ccc(CCC(C)NCCN(C)C)cc1 (centres unmarked) [Example 49, dihydrochloride]
criterion not met

Determine whether this compound shows plasma prothrombin time lower than 50 s (ties excluded): CCCCOc1ccc(CCC(C)N2CCCC2)cc1.Cl (centres unmarked)
criterion met
